Target: Bromodomain adjacent to zinc finger domain protein 2B (Homo sapiens) (UniProt Q9UIF8)
Sequence (Q9UIF8 whole entry, looked up, the tested form may be a part): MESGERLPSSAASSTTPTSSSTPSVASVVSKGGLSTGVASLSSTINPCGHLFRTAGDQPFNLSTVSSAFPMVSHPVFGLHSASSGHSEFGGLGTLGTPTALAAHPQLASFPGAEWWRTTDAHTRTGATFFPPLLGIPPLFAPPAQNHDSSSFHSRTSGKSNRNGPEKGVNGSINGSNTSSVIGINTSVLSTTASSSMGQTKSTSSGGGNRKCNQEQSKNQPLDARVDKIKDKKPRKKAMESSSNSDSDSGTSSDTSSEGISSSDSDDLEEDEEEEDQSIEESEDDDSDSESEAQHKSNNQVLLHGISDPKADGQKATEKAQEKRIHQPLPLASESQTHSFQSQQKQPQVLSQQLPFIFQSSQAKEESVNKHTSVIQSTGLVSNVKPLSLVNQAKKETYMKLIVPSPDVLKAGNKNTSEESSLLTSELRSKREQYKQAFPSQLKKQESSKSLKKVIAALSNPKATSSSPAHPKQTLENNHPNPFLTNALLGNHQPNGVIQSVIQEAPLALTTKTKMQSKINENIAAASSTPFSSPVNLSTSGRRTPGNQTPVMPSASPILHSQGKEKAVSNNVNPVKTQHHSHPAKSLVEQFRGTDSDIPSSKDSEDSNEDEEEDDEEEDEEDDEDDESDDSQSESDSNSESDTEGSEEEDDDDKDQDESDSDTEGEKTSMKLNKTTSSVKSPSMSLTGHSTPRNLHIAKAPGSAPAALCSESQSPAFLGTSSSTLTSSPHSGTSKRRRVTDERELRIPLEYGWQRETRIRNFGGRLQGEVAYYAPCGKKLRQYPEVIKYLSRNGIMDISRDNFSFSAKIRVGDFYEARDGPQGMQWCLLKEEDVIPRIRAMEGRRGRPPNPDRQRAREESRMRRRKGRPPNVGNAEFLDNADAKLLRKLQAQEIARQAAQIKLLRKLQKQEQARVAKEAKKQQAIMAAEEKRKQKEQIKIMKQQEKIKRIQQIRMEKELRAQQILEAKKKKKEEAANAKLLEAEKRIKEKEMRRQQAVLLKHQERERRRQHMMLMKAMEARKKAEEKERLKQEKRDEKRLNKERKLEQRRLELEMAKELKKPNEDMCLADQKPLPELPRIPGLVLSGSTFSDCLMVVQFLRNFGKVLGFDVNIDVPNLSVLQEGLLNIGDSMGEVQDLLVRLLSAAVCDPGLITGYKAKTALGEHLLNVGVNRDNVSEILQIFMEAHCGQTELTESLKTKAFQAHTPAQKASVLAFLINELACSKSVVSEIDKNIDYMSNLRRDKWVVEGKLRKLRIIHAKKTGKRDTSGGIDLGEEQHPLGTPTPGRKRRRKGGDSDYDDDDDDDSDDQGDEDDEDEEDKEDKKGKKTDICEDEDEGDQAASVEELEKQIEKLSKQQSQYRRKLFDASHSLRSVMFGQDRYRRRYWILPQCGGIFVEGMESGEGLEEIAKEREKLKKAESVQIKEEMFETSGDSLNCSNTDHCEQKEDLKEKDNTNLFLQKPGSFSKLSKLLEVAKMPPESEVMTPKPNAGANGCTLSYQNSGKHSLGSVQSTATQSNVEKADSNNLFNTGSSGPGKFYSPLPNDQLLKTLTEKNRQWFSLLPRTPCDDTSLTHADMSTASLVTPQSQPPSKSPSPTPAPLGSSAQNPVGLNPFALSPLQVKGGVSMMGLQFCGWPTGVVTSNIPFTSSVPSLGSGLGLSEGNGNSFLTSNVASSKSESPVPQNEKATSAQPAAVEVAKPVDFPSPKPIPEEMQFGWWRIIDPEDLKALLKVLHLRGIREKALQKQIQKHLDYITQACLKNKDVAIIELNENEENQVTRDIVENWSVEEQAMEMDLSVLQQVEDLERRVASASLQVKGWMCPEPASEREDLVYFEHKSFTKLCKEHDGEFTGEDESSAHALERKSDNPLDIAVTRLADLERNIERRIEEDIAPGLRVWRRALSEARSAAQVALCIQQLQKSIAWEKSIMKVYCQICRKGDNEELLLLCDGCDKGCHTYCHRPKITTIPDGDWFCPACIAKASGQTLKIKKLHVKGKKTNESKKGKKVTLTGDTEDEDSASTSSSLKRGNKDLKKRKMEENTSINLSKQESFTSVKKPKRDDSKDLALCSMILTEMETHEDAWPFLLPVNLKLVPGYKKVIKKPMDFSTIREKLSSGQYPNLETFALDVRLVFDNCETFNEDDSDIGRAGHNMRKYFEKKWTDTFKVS
Assay: qHTS Assay for Inhibitors of BAZ2B; note: nearly all actives have a fitted effect of over 60% in size
Settings: AlphaScreen BAZ2B-H3K14Ac peptide displacement; series mostly up to 114 µM
Hit rate of the full screen: of about 360,000 compounds, about 16,000 (4.4%) were called active. Not shown: some 9% with an inconclusive outcome. Calls come from the whole dose curve; as a rule, active = well fitted inhibition curve with a large enough effect; inconclusive = small, poorly fitted or top-dose-only effect; inactive = no such curve, though single readings can be large or run the other way. The sample holds actives, similar compounds and a random draw of the others, so the mix is not that of the screen.
Possible outcomes: t = active, f = inactive

1. O=c1[nH]c(=O)n(-c2ccccc2)c(O)c1C=NC12CN3CN(CN(C3)C1)C2 ... f
2. O=c1[nH]c(CN2CC=C(c3ccccc3)CC2)nc2scc(-c3cccs3)c12 ... f
3. CCc1ccc(OCC(=O)N2CCN(CC(=O)Nc3ccccc3Cl)CC2)cc1 ... f
4. COc1cccc(C(=O)N2C[C@H]3C[C@@H](C2)c2cccc(=O)n2C3)c1 ... f
5. O=c1[nH]c(=O)n(CCc2ccc(F)cc2)c(O)c1/C=N/N1CCCCC1 ... f
6. Cc1cc(=O)oc2c(C)c(OCC(=O)N3CCN(Cc4ccc5c(c4)OCO5)CC3)ccc12 ... f
7. Fc1ccc(N2CCN(Cc3ccc4c(c3)OCO4)CC2)cc1 ... t
8. CCN1CCN(c2nc3c(c(=O)[nH]2)CCC3)CC1 ... f
